What inhibition was measured for each of the following?
Target: FAD-linked sulfhydryl oxidase ALR (Homo sapiens)
Assay: ALR-catalysed DTT oxidation blockers – biochemical, H2O2 detection, HRP-luminol luminescence, single point, primary screen (AID 485317)
Conditions: purified ALR, stronger effect = higher value, concentration not given here
About 11,000 (3.8%) of roughly 290,000 compounds were called active. Only a selection was taken, and actives are over-represented in it overall.
Answers are plain numbers, in %.

Below are worked cases with known answers.
- entrySmiles: "CC(C)n1cnc2c(NCc3ccccc3)cc(N[C@@H](CO)Cc3ccccc3)cc21"
  inhibition / %: -30.8
- entrySmiles: "O=C1CN(C(=O)COC(=O)/C=C/c2ccc(F)cc2)c2ccccc2N1"
  inhibition / %: -2.48
- entrySmiles: "COc1ccc(-c2nc3c(s2)CCc2onc(-c4ccc(Br)cc4)c2-3)cc1"
  inhibition / %: -11
- entrySmiles: "C/C(=N\\NC(=O)c1cccnc1)c1ccc(-c2ccccc2)cc1"
  inhibition / %: -25.7
- entrySmiles: "Cc1cc(C)c(-c2c(O)c3ccccc3n(C)c2=O)c(C)c1"
  inhibition / %: -13.7
- entrySmiles: "Cc1nn(C)cc1C(=O)c1ccccc1"
  inhibition / %: -7.74
- entrySmiles: "COc1ccc(NC(=O)CSc2nc(C)cs2)cc1"
  inhibition / %: -14.7
- entrySmiles: "CC(=O)Nc1ccc(NC(=O)CSc2ncnc3c2cnn3Cc2ccccc2)cc1"
  inhibition / %: -9.78

// for each molecule below, give its inhibition
1. COc1ccc(NC(=O)CSc2ncnc3[nH]ncc23)cc1
2. Cc1ccc2nc(-c3ccccc3)cc(C(=O)O)c2c1
3. Cc1ccc2nc(-c3cccc(Br)c3)cc(C(=O)Nn3cnnc3)c2c1

Result string:
[98.6, 89.7, 1.88]

----------
Target: FAD-linked sulfhydryl oxidase ALR (Homo sapiens) (UniProt P55789)
Sequence (P55789 whole entry, looked up): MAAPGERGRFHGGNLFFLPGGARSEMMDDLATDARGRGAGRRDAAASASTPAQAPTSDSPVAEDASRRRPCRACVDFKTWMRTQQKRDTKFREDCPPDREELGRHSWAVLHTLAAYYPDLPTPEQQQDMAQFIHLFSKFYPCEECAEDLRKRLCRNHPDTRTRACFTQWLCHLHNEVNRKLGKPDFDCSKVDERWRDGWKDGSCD
Assay: ALR-catalysed DTT oxidation blockers – biochemical, H2O2 detection, HRP-luminol luminescence, single point, primary screen (AID 485317)
Conditions: purified ALR, concentration not given here
Screen size: about 290,000 compounds; about 11,000 (3.8%) were called active.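 How the source made its calls: active means mean replicate inhibition above about 79%, with every replicate also reaching it (limit read from the data); inconclusive means only one of the two criteria met; inactive means mean below limit and not every replicate reaching it.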 The entries come from a sample that favours actives as a whole.
Hello, when you answer, please use one of the following outcomes: True (active), False (inactive)

Solved entries (count: 2):
- compound: "CCN(CC(=O)Nc1c(F)cccc1F)C(=O)c1ccc(S(=O)(=O)N2CCCCC2)cc1"
  class: "False"
- compound: "CCN(C(=O)CSc1ncnc2c1cnn2-c1ccccc1)C1CCS(=O)(=O)C1 (stereo not given)"
  class: "False"

Query string: What is the recorded call for this compound in the test? COc1cccc(NCCC(=O)c2cccc([N+](=O)[O-])c2)c1
Result string: True

Query string: What was the test verdict on CCOc1ccc(NC(=O)CSc2nc3ccccc3c(=O)n2Cc2cccs2)cc1 ?
Result string: False

Query string: // outcome(item) with item = COc1cccc(CNC(=O)CCCC(=O)Nc2cccc([N+](=O)[O-])c2)c1
Result string: False

Query string: Identify the outcome logged in this assay for the compound shown: COc1cccc(C(=O)CC(=O)C(=O)Nc2ccc([N+](=O)[O-])cc2C)c1
Result string: False

Query string: # outcome recorded in this test, key = CCOc1cc(/C=C2\SC(N3CCCCC3)=NC2=O)ccc1O
Result string: True

Query string: Status in this test for CNC(C)C#Cc1ccc2sc3cc(OC)c(OC)cc3c(=O)c2c1 (stereo not given) ?
Result string: False

Query string: I'd appreciate the recorded outcome for Cc1ccccc1NC(=O)Cc1nc(COC(=O)c2cccnc2Cl)cs1 from this test.
Result string: False

Query string: Recorded test call requested for COCCn1c(SCC(=O)Nc2ccccc2F)nc2c(c1=O)SCC2
Result string: False

Origin of values: PubChem BioAssay AID485317
